Where do these numbers come from? They come from PubChem BioAssay AID1159580.

Experiment: chemical genetic growth profiling, strain panel (AID 1159580);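 also: tested at 20 µM; growth read once vehicle control cultures reached saturation at 30 °C; 1 = growth at the plate median or of vehicle wells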
Conditions: S. cerevisiae deletion strains, growth OD, locus YDR069C, strain doa4, active compounds read low
In all, about 5,500 compounds went through this assay and about 2,000 (36%) were called active. Roughly 18% stayed inconclusive and do not appear here. Some of the results follow.
Observed Property: normalized growth

Molecule	Observed Property	Value
CN(C)CCOC(=O)C(c1ccccc1)C1(O)CCCC1 (centres undefined)	normalized growth	0.99 (inactive)
COc1c2ccoc2nc2c(OC)c(OCC(O)C(C)(C)O)ccc12 (centres undefined)	normalized growth	1.03 (inactive)
CC(CCC(=O)O)[C@H]1CCC2C3CC[C@@H]4C[C@H](O)CC[C@]4(C)C3CC[C@@]21C (some centres undefined)	normalized growth	0.947 (inactive)
CC1(C)C(O)CC(O)C2(C)C1CC(O)C1(C)C2CCC2(C)C(c3ccoc3)OC(=O)C3OC321 (centres undefined)	normalized growth	0.98 (inactive)
O=c1[nH]cnc2[nH]ncc12	normalized growth	1.04 (inactive)

// query normalized growth value for entry COC(=O)CCC(C)[C@H]1CCC2C3C(C[C@H](O)[C@@]21C)[C@@]1(C)CC[C@@H](O)C[C@H]1C[C@H]3O (some centres undefined)
1 (inactive)

// next record CN(CCC(N)CC(=O)N[C@H]1C=CC(n2ccc(N)nc2=O)O[C@@H]1C(=O)O)C(=N)N (some centres undefined)
0.494 (active)

Note, next up: CC[C@H](CCC(C)[C@H]1CCC2C3CCC4C[C@@H](O)CC[C@]4(C)C3CC[C@@]21C)C(C)C (some centres undefined)
0.977 (inactive)

Subsequent entry: CC1CCC2(OC1)OC1CC3C4CCC5C[C@@H](O)CCC5(C)C4=CCC3(C)C1[C@@H]2C (some centres undefined)
1.01 (inactive)

Lookup NCC(CC(=O)O)c1ccc(Cl)cc1 (centres undefined)
1.02 (inactive)

For Nc1ccn(C2O[C@H](CO)[C@@H](O)[C@H]2O)c(=O)n1 (some centres undefined) then?
0.992 (inactive)

Ok, now COc1c2ccccc2nc2occc12
0.942 (inactive)

----------
Assay: chemical genetic growth profiling, strain panel (AID 1159580)
Details: S. cerevisiae deletion strains, growth OD, locus YGR040W, strain KSS1, active compounds read low
In all, about 5,500 compounds went through this assay and about 2,000 (36%) were called active. About 18% were inconclusive and are not listed. The list shows a part of the results.
Observed Property: normalized growth
Write the number on its own, no unit after it.

Check out these entries, answers already filled in.
Compound	normalized growth
Cc1onc(-c2ccccc2)c1C(=O)Sc1ccc(C(F)(F)F)cn1	0.227
CC(C)(C)C(=O)/C(C#N)=C/c1c(Cl)cccc1Cl	0.112

What value of measured normalized growth is listed for O=C(Nc1ccc(F)c(Cl)c1)c1ccccc1O ?
0.819

// same read-out, input: O=[N+]([O-])c1ccc(-c2csc(Nc3ccncc3)n2)cc1
0.978

----------
Assay: chemical genetic growth profiling, strain panel (AID 1159580)
Settings: S. cerevisiae deletion strains, growth OD, locus YLR039C, strain RIC1
About 2,000 (36%) of roughly 5,500 compounds were called active. Roughly 18% stayed inconclusive and do not appear here. Cut-off read from the data, not from the text of the source: active = normalized growth mostly below about 0.91 (no sharp cut-off); inconclusive = no clear call, values can overlap the other calls; inactive = mostly above about 0.92. The list shows a part of the results.
Mark one answer only. Choices: active, inactive

Hi, sorry to bother you, what did the test record for O=C(O)Cc1cc(I)c(Oc2cc(I)c(O)c(I)c2)c(I)c1 ?
inactive

----------
Assay: chemical genetic growth profiling, strain panel (AID 1159580)
Settings: S. cerevisiae deletion strains, growth OD, locus YER167W, strain BCK2, active compounds read low
Among all 5,500 compounds or so, about 2,000 (36%) were called active. About 18% were inconclusive and are not listed. The list shows a part of the results.
Observed Property: normalized growth
Reply with the value as a number alone.

Known results for compounds:
Compound	Value
N#C/C(=C\c1cccc(O)c1)C(=O)O	1.05
COc1ccc(C(=O)N2CCCC2=O)cc1	0.983
CC(CCC(=O)O)[C@H]1CCC2C3C[C@H](O)[C@@H]4C[C@H](O)CC[C@]4(C)C3CC[C@@]21C (stereo partly specified)	1.04
CC(=O)N=c1sc(S(N)(=O)=O)nn1C	1.02
CC(=O)Nc1nnc(S(N)(=O)=O)s1	0.748

Which measured normalized growth value corresponds to COc1ccc(C(=O)CC(=O)c2ccc(C(C)(C)C)cc2)cc1 ?
0.987

----------
Experiment: chemical genetic growth profiling, strain panel (AID 1159580);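 also: tested at 20 µM; growth read once vehicle control cultures reached saturation at 30 °C; 1 = growth at the plate median or of vehicle wells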
Conditions: S. cerevisiae deletion strains, growth OD, locus YLR085C, strain ARP6
Screen size: about 5,500 compounds; about 2,000 (36%) were called active. About 18% were inconclusive and are not listed. No stated cut-off is given here; in the data, active means normalized growth mostly below about 0.91 (no sharp cut-off); inconclusive means no clear call, values can overlap the other calls; inactive means mostly above about 0.92. The list shows a part of the results.
Answer with one of the outcomes given here: 1 = active, -1 = inactive

Compound	Assigned Class
O=C(NCc1nc(-c2ccc(C(F)(F)F)cc2)no1)Nc1ccc(F)cc1F	-1
O=c1c2cc(NS(=O)(=O)c3ccc(Cl)cc3)ccc2oc2ncccc12	-1
Cc1cc(NS(=O)(=O)c2ccc(NS(=O)(=O)c3cc(C)c(Cl)cc3C)cc2)no1	-1
Cc1ccc(/C(N)=N\O)cc1F	1
Cc1cc(CN2CC(C)OC(C)C2)cc(C)c1O (stereo unspecified)	-1

I'd appreciate the recorded outcome for Cn1nccc1NS(=O)(=O)c1cccc(Cl)c1 from this test.
-1

Would you kindly repeat that for O=S(=O)(Nc1ccc(Oc2ccc(Cl)cc2)cc1)c1ccccc1 ?
1

# iterate: N#Cc1cccc(Cn2c(=O)oc3ccccc32)c1
-1

For CSC(=NC(=O)c1c(Cl)cccc1Cl)SC then?
1

Similarly, O=C(CSc1nnc(NC(=O)c2cccc([N+](=O)[O-])c2)s1)Nc1ccc2c(c1)OCO2 ?
-1

Request: COc1ccc(C=C2C(=O)NC(=S)NC2=O)cc1Br
-1

----------
Experiment: chemical genetic growth profiling, strain panel (AID 1159580);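 also: tested at 20 µM; growth read once vehicle control cultures reached saturation at 30 °C; 1 = growth at the plate median or of vehicle wells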
Conditions: S. cerevisiae deletion strains, growth OD, locus YNL207W, strain RIO2, active compounds read low
Hit rate of the full screen: of about 5,500 compounds, about 2,000 (36%) were called active. Roughly 18% stayed inconclusive and do not appear here. Some of the results follow.
Simple rule here: normalized growth less than 0.9 is Satisfied, otherwise Not satisfied.

The examples below pair each entry with its known result.
Chemical String	Assigned Class
O=C(NNc1ccc(Cl)cc1)c1ccc(F)cc1F	Not satisfied
Cc1c(S(=O)(=O)c2ccc(Cl)cc2)csc1C(=O)NNc1cccc(Cl)c1	Not satisfied
S=C(Nc1cc(Cl)c(Cl)cc1Cl)Nc1ccccc1Br	Not satisfied
Cc1onc(-c2ccccc2)c1C(=O)Sc1ccc(C(F)(F)F)cn1	Not satisfied
Oc1ccc(N=Nc2ccccn2)c(O)c1	Satisfied
CC(C)(C)C(=O)/C(C#N)=C/c1c(Cl)cccc1Cl	Satisfied
N#Cc1ccc(NC(=O)Nc2cccc3ccccc23)cc1	Not satisfied
CS(=O)(=O)c1sc(C(=O)Sc2ccc(Cl)cc2)c2c1C=CCC2	Satisfied
CS(=O)(=O)/C(C#N)=C/c1ccccc1OCc1c(Cl)cccc1Cl	Not satisfied
O=C(Nc1cccc2ccccc12)c1ccccc1O	Satisfied

Answer whether the molecule CSC(=NNc1ccccc1)NC(=O)c1c(Cl)cccc1Cl has normalized growth strictly less than 0.9
Not satisfied

Please answer likewise for S=C(NNc1ccccc1)Nc1cc(Cl)ccc1Cl
Not satisfied

----------
Assay: chemical genetic growth profiling, strain panel (AID 1159580);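 also: tested at 20 µM; growth read once vehicle control cultures reached saturation at 30 °C; 1 = growth at the plate median or of vehicle wells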
Conditions: S. cerevisiae deletion strains, growth OD, locus YDR069C, strain doa4, active compounds read low
Screen size: about 5,500 compounds; about 2,000 (36%) were called active. Another 18% or so got no clear call; they are omitted. This is one part of the list.
Observed Property: normalized growth
// no unit, no text: just the number

// solved cases for normalized growth follow
Molecule	Observed Property	Value
O=c1cc(-c2ccccc2)oc2cc(O)c(O)c(O)c12	normalized growth	0.127
O=C(O)CCC(=O)Nc1ccc(S(=O)(=O)Nc2nccs2)cc1	normalized growth	1
COc1cc(S(C)=O)ccc1-c1nc2ncccc2[nH]1 (centres undefined)	normalized growth	0.958
C[C@@H]1O[C@@H](O[C@H]2C[C@@H](O)[C@]3(CO)C4C(CC[C@]3(O)C2)[C@@]2(O)CC[C@H](C3=CC(=O)OC3)[C@@]2(C)C[C@H]4O)[C@H](O)[C@H](O)[C@H]1O (some centres undefined)	normalized growth	0.997
NNCCc1ccccc1	normalized growth	1

What normalized growth value was documented for this molecule, CCN(CC)C(C)CN1c2ccccc2Sc2ccccc21 (centres undefined) ?
0.973

Entry CC(=O)OCC(=O)[C@@]1(O)[C@H](OC(C)=O)CC2C3CCC4=CC(=O)C=C[C@]4(C)[C@@]3(F)[C@@H](O)C[C@@]21C (some centres undefined) please
1.01

Further, for CC(CN(C)C)CN1c2ccccc2CCc2ccccc21 (centres undefined) ?
0.921

// same read-out, input: C=C[C@H]1CN2CC[C@H]1C[C@@H]2[C@H](O)c1ccnc2ccccc12
0.996

Note, next up: N[C@H](Cc1cc(I)c(Oc2ccc(O)c(I)c2)c(I)c1)C(=O)O
0.992

How about this molecule: C/C=C/C(=O)N(CC)c1ccccc1C
1.02

# repeat for CN(C(=O)CN(CCO)CC(=O)N(C)C(C)(C)Cc1ccccc1)C(C)(C)Cc1ccccc1
1.01

Now consider CC(=O)Nc1ccccc1 and answer again.
0.959

Next molecule: NC(Cc1ccc(F)cc1)C(=O)O (centres undefined)
1.02

Also, O=c1cc(-c2ccc(O)cc2)oc2cc(O)cc(O)c12 please.
0.966

Same for Cc1cc(=O)oc2c(O)c(O)ccc12
0.963
